- Test system: NCI-H196 complex spheroids with HUVEC/MSC, growth % T/C
- assay.details: Anticancer human tumor NCI-H196 cell line growth inhibition [Asc];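 also: spheroids exposed to compound for 7 days before measurement; 100% = DMSO vehicle control wells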
- experimental.setup: second compound 0.949 µM; first compound 0.316 µM; active compounds read low
- From the text: Multicellular complex tumor spheroid response to apoptosis pathway targeting inhibitors Alrizomadlin, Pelcitoclax, and Dasminapant in combination with a variety of drugs and investigational agents in selected tumor cell lines […] Compounds. […] If the clinical Cmax for an agent had not been determined, the highest concentration tested was 10 microM. […]
Catalogue of viability, T/C values
property.name: viability, T/C (%)

[[record]]
compound = "C=C(F)C(=O)N1CCN(c2nc(OCC3CCCN3C)nc3c2CCN(c2cccc4cccc(Cl)c24)C3)CC1CC#N (centres undefined) + CCN1C(C(=O)NC23CCC(C(=O)O)(CC2)CC3)C(c2cccc(Cl)c2F)C2(C(=O)Nc3cc(Cl)ccc32)C12CCCCC2"
property_name = "viability, T/C"
unit_of_measure = "%"
assay_result = 117

[[record]]
compound = "C#Cc1c(F)ccc2cc(O)cc(-c3ncc4c(N5CC6CCC(C5)N6)nc(OCC56CCCN5CC(F)C6)nc4c3F)c12 (centres undefined) + CCN1C(C(=O)NC23CCC(C(=O)O)(CC2)CC3)C(c2cccc(Cl)c2F)C2(C(=O)Nc3cc(Cl)ccc32)C12CCCCC2"
property_name = "viability, T/C"
unit_of_measure = "%"
assay_result = 115

[[record]]
compound = "CCN1CCN(Cc2ccc(Nc3ncc(F)c(-c4cc(F)c5nc(C)n(C(C)C)c5c4)n3)nc2)CC1 + CCN1C(C(=O)NC23CCC(C(=O)O)(CC2)CC3)C(c2cccc(Cl)c2F)C2(C(=O)Nc3cc(Cl)ccc32)C12CCCCC2"
property_name = "viability, T/C"
unit_of_measure = "%"
assay_result = 120

[[record]]
compound = "O=C(c1ccc(F)c(F)c1Nc1ccc(I)cc1F)N1CC(O)([C@@H]2CCCCN2)C1 + CCN1C(C(=O)NC23CCC(C(=O)O)(CC2)CC3)C(c2cccc(Cl)c2F)C2(C(=O)Nc3cc(Cl)ccc32)C12CCCCC2"
property_name = "viability, T/C"
unit_of_measure = "%"
assay_result = 145


---

- Test system: NCI-H196 complex spheroids with HUVEC/MSC, growth % T/C
- assay.details: Anticancer human tumor NCI-H196 cell line growth inhibition [Asc]; active = viability on the fitted dose curve at most 10% of control; inactive = the rest;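 also: spheroids exposed to compound for 7 days before measurement; 100% = DMSO vehicle control wells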
- experimental.setup: second compound 1 µM; first compound 0.01 µM
Labels: active, inactive

[[record]]
compound = "NC1CCC(NC2CC2c2ccccc2)CC1 (centres undefined) + Cc1c(S(C)(=O)=O)c(-c2cc(F)cc(N3CCN(c4ccc(NS(=O)(=O)c5ccc(NC(CCN6CCC(C(=O)OCCCP(=O)(O)O)CC6)CSc6ccccc6)c(S(=O)(=O)C(F)(F)F)c5)cc4)CC3)c2)c(-c2ccc(Cl)cc2)n1C(C)C"
class_label = "inactive"

[[record]]
compound = "COc1c(OCCCN2CCOCC2)ccc2c3n(c(=NC(=O)c4cnc(N)nc4)nc12)CCN3 + Cc1c(S(C)(=O)=O)c(-c2cc(F)cc(N3CCN(c4ccc(NS(=O)(=O)c5ccc(NC(CCN6CCC(C(=O)OCCCP(=O)(O)O)CC6)CSc6ccccc6)c(S(=O)(=O)C(F)(F)F)c5)cc4)CC3)c2)c(-c2ccc(Cl)cc2)n1C(C)C"
class_label = "inactive"

[[record]]
compound = "COc1c(OCCCN2CCOCC2)ccc2c3n(c(=NC(=O)c4cnc(N)nc4)nc12)CCN3 + CNC(C)C(=O)NC1CN(S(=O)(=O)c2cccc(S(=O)(=O)N3CCC4CCC(C(=O)NC(c5ccccc5)c5ccccc5)N4C(=O)C(NC(=O)C(C)NC)C3)c2)CCC2CCC(C(=O)NC(c3ccccc3)c3ccccc3)N2C1=O"
class_label = "active"

[[record]]
compound = "CNC(C)C(=O)NC1CN(S(=O)(=O)c2cccc(S(=O)(=O)N3CCC4CCC(C(=O)NC(c5ccccc5)c5ccccc5)N4C(=O)C(NC(=O)C(C)NC)C3)c2)CCC2CCC(C(=O)NC(c3ccccc3)c3ccccc3)N2C1=O (centres undefined) + Cc1c(S(C)(=O)=O)c(-c2cc(F)cc(N3CCN(c4ccc(NS(=O)(=O)c5ccc(NC(CCN6CCC(C(=O)OCCCP(=O)(O)O)CC6)CSc6ccccc6)c(S(=O)(=O)C(F)(F)F)c5)cc4)CC3)c2)c(-c2ccc(Cl)cc2)n1C(C)C"
class_label = "inactive"


---

- Test system: NCI-H196 complex spheroids with HUVEC/MSC, growth % T/C
- assay.details: Anticancer human tumor NCI-H196 cell line growth inhibition [Asc]; active means viability on the fitted dose curve at most 10% of control; inactive means the rest;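 also: spheroids exposed to compound for 7 days before measurement; 100% = DMSO vehicle control wells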
- experimental.setup: second compound 0.949 µM; first compound 1 µM
Labels: active, inactive

[[record]]
molecule = "O=C(c1ccc(F)c(F)c1Nc1ccc(I)cc1F)N1CC(O)([C@@H]2CCCCN2)C1 + CCN1C(C(=O)NC23CCC(C(=O)O)(CC2)CC3)C(c2cccc(Cl)c2F)C2(C(=O)Nc3cc(Cl)ccc32)C12CCCCC2"
class_label = "inactive"

[[record]]
molecule = "C=CC(=O)N1CCN(c2nc(=O)n(-c3c(C)ccnc3C(C)C)c3nc(-c4c(O)cccc4F)c(F)cc23)C(C)C1 (stereo unspecified) + CCN1C(C(=O)NC23CCC(C(=O)O)(CC2)CC3)C(c2cccc(Cl)c2F)C2(C(=O)Nc3cc(Cl)ccc32)C12CCCCC2"
class_label = "inactive"

[[record]]
molecule = "CCN1CCN(Cc2ccc(Nc3ncc(F)c(-c4cc(F)c5nc(C)n(C(C)C)c5c4)n3)nc2)CC1 + CCN1C(C(=O)NC23CCC(C(=O)O)(CC2)CC3)C(c2cccc(Cl)c2F)C2(C(=O)Nc3cc(Cl)ccc32)C12CCCCC2"
class_label = "inactive"

[[record]]
molecule = "COc1c(OCCCN2CCOCC2)ccc2c3n(c(=NC(=O)c4cnc(N)nc4)nc12)CCN3 + CCN1C(C(=O)NC23CCC(C(=O)O)(CC2)CC3)C(c2cccc(Cl)c2F)C2(C(=O)Nc3cc(Cl)ccc32)C12CCCCC2"
class_label = "inactive"

[[record]]
molecule = "CNC(C)C(=O)NC1CN(S(=O)(=O)c2cccc(S(=O)(=O)N3CCC4CCC(C(=O)NC(c5ccccc5)c5ccccc5)N4C(=O)C(NC(=O)C(C)NC)C3)c2)CCC2CCC(C(=O)NC(c3ccccc3)c3ccccc3)N2C1=O (stereo unspecified) + CCN1C(C(=O)NC23CCC(C(=O)O)(CC2)CC3)C(c2cccc(Cl)c2F)C2(C(=O)Nc3cc(Cl)ccc32)C12CCCCC2"
class_label = "active"

[[record]]
molecule = "C=C(F)C(=O)N1CCN(c2nc(OCC3CCCN3C)nc3c2CCN(c2cccc4cccc(Cl)c24)C3)CC1CC#N (stereo unspecified) + CCN1C(C(=O)NC23CCC(C(=O)O)(CC2)CC3)C(c2cccc(Cl)c2F)C2(C(=O)Nc3cc(Cl)ccc32)C12CCCCC2"
class_label = "inactive"


---

Catalogue of viability, T/C values
- Test system: NCI-H196 complex spheroids with HUVEC/MSC, growth % T/C
- assay.details: Anticancer human tumor NCI-H196 cell line growth inhibition [Asc];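 also: spheroids exposed to compound for 7 days before measurement; 100% = DMSO vehicle control wells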
- experimental.setup: second compound 0.03 µM; first compound 0.01 µM; active compounds read low
property.name: viability, T/C

[[record]]
molecule = "COc1c(OCCCN2CCOCC2)ccc2c3n(c(=NC(=O)c4cnc(N)nc4)nc12)CCN3 + CCN1C(C(=O)NC23CCC(C(=O)O)(CC2)CC3)C(c2cccc(Cl)c2F)C2(C(=O)Nc3cc(Cl)ccc32)C12CCCCC2"
property_name = "viability, T/C"
assay_result = "106%"

[[record]]
molecule = "CNC(C)C(=O)NC1CN(S(=O)(=O)c2cccc(S(=O)(=O)N3CCC4CCC(C(=O)NC(c5ccccc5)c5ccccc5)N4C(=O)C(NC(=O)C(C)NC)C3)c2)CCC2CCC(C(=O)NC(c3ccccc3)c3ccccc3)N2C1=O (stereo unspecified) + CCN1C(C(=O)NC23CCC(C(=O)O)(CC2)CC3)C(c2cccc(Cl)c2F)C2(C(=O)Nc3cc(Cl)ccc32)C12CCCCC2"
property_name = "viability, T/C"
assay_result = "17.9%"

[[record]]
molecule = "O=C(c1ccc(F)c(F)c1Nc1ccc(I)cc1F)N1CC(O)([C@@H]2CCCCN2)C1 + CCN1C(C(=O)NC23CCC(C(=O)O)(CC2)CC3)C(c2cccc(Cl)c2F)C2(C(=O)Nc3cc(Cl)ccc32)C12CCCCC2"
property_name = "viability, T/C"
assay_result = "110%"

[[record]]
molecule = "NC1CCC(NC2CC2c2ccccc2)CC1 (stereo unspecified) + CCN1C(C(=O)NC23CCC(C(=O)O)(CC2)CC3)C(c2cccc(Cl)c2F)C2(C(=O)Nc3cc(Cl)ccc32)C12CCCCC2"
property_name = "viability, T/C"
assay_result = "110%"

[[record]]
molecule = "CCN1CCN(Cc2ccc(Nc3ncc(F)c(-c4cc(F)c5nc(C)n(C(C)C)c5c4)n3)nc2)CC1 + CCN1C(C(=O)NC23CCC(C(=O)O)(CC2)CC3)C(c2cccc(Cl)c2F)C2(C(=O)Nc3cc(Cl)ccc32)C12CCCCC2"
property_name = "viability, T/C"
assay_result = "99.8%"

[[record]]
molecule = "Cn1ncnc1[C@H]1c2n[nH]c(=O)c3cc(F)cc(c23)N[C@@H]1c1ccc(F)cc1 + CCN1C(C(=O)NC23CCC(C(=O)O)(CC2)CC3)C(c2cccc(Cl)c2F)C2(C(=O)Nc3cc(Cl)ccc32)C12CCCCC2"
property_name = "viability, T/C"
assay_result = "108%"

